Test system: LANA (ORF73) N-terminal peptide binding to nucleosomes, Human herpesvirus 8
RUN DESCRIPTION: LANA N-terminal peptide–nucleosome interaction blockers – biochemical, fluorescence polarization, FITC-LANA1-23, chicken nucleosomes, primary screen (AID 720717)
ASSAY CONDITIONS: FITC-LANA1-23 / chicken nucleosome fluorescence polarization; stronger effect = lower value
Out of some 51,000 compounds screened, about 150 (0.29%) were called active. For the sample, actives were picked, then their nearest neighbours and some compounds at random.
# note: exactly -0.7 is not below, so it is not satisfied; use satisfied for z-score strictly under it

[
  {
    "INPUT SMILES": "CCN(Cc1ccccc1)C(=O)C1CCN(Cc2cc(Br)c(O)c(OC)c2)CC1",
    "LABEL VALUE": "satisfied"
  },
  {
    "INPUT SMILES": "Cc1ccc2cc(CN(CCN3CCCC3)C(=O)NC3CCCCC3)c(=O)[nH]c2c1C",
    "LABEL VALUE": "not satisfied"
  },
  {
    "INPUT SMILES": "O=C(Nc1ccc(Cl)cc1)c1ncoc1-c1cccs1",
    "LABEL VALUE": "not satisfied"
  },
  {
    "INPUT SMILES": "COC(=O)c1ccc(NS(=O)(=O)c2cc(C(=O)OC)n(C)c2)cc1",
    "LABEL VALUE": "not satisfied"
  },
  {
    "INPUT SMILES": "CC(C)NC(=S)N/N=C/c1ccn[nH]1",
    "LABEL VALUE": "not satisfied"
  },
  {
    "INPUT SMILES": "CS(=O)(=O)C1=NSC2=NC(=O)/C(=C\\c3ccco3)C(=N)N21",
    "LABEL VALUE": "satisfied"
  }
]
